B1: HDV Ribozyme (parent)
chain: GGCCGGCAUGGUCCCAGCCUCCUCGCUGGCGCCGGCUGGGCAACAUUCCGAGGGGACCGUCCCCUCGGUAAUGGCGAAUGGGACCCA

Variants of: B1
protocolText: self-cleavage, relative activity (ratio to wild type); higher = more cleavage; co-transcriptional
So I've got a bunch of variants here, and I need their self-cleavage values.
Form: value (number only, do not type unit).

Qu. For the variant C4G G38C , give its reported self-cleavage.
Ans. 0

Qu. Please report self-cleavage for the following variant: G1C G59C
Ans. 0.365

Qu. Please report self-cleavage for the following variant: A56U C58A
Ans. 1.16

Qu. Report self-cleavage for G10C G31C
Ans. 0.237

Qu. Indicate the recorded self-cleavage value for this variant: A8U C58G
Ans. 0.582

Qu. Quote self-cleavage reported for G50C G82U please.
Ans. 0.217

Qu. Give the measured self-cleavage for C30U G34A
Ans. 0.0875

All figures here come from the RNAGym collection of RNA variant scans (doi:10.7554/elife.80360).
